Let's look at some sequences and their measured PBM binding z-score.
- Test system: THRa:RXRa (NR concentration 90 nM, RXRa partner concentration 90 nM)
- assay name: PBM binding z-score (relative to random genomic background probes); higher = stronger binding; sequences stand for … in GC…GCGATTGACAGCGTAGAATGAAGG

>  <polymer sequence>
GATACAGGGTCAGCTAGAGGCCAGAGTCTGGAAA

>  <PBM binding z-score>
2.9

$$$$
>  <polymer sequence>
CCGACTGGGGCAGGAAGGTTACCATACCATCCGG

>  <PBM binding z-score>
0.142

$$$$
>  <polymer sequence>
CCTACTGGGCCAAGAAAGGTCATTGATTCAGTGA

>  <PBM binding z-score>
3.43

$$$$
>  <polymer sequence>
ATACCAAGGTGATCGTGATGTCGTTGATACTAAC

>  <PBM binding z-score>
0.81

$$$$
>  <polymer sequence>
GCAGATAGGTAATACAAGGTGAAAGTCCGATTGT

>  <PBM binding z-score>
4.12

$$$$
>  <polymer sequence>
TCAGATAGGTAAATGCTAGGTGAAAGTCCGATCT

>  <PBM binding z-score>
1.22

$$$$
>  <polymer sequence>
CAAACTAGGTCAGAGGTCAAAGTCGAGCCAACCA

>  <PBM binding z-score>
4.3

$$$$
>  <polymer sequence>
CAGCCTAGGTCAGGGCCTGTATAGGAGGAACGTT

>  <PBM binding z-score>
1.88

$$$$
>  <polymer sequence>
TATACAGGTTCAAAGGCCAGAGTACGAATGTCGA

>  <PBM binding z-score>
1.25

$$$$
>  <polymer sequence>
TCTTATAGGTAAACAGGTGAAAGTCCGTAAGTTA

>  <PBM binding z-score>
0.793

$$$$
>  <polymer sequence>
GATACAGTGTCAAGGCCAGAGTACGCGTATTGAT

>  <PBM binding z-score>
0.471

$$$$
>  <polymer sequence>
TCTAGTTGGTCACGGAGATCACACACGACGGGTA

>  <PBM binding z-score>
0.155

$$$$
